Molecular target: T1, human CD3ε/δ-His (human, UniProt P07766 23-126; P04234 22-105)
T1 construct: Bought recombinant heterodimer with His tag; also called human CD3ε/δ protein
T1 sequence (P07766 23-126, stated change not applied, form in doubt, chain 1 of 2): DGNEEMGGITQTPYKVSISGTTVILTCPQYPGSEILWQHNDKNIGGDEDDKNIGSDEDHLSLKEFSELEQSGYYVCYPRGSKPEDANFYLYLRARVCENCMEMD
T1 sequence (P04234 22-105, stated change not applied, form in doubt, chain 2 of 2): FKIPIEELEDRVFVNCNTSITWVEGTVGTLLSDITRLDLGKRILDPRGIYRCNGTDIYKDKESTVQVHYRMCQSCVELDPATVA
Experiment: SPR, antibody captured on Protein A chip

# binder, kon / M⁻¹ s⁻¹
measured = [
    ("1-22.6-1-H2a-L2a humanized antibody (antibody, human IgG1, kappa, V domains shown, also called 1-22.6-H2a-L2a) VH: EVQLVQSGSELKKPGASVKVSCKTSGYTFTSYGMSWVRQAPGQGLEWMGWINTYSGVPTYAQDFKGRFVFSLDTSVSTAYLQISSLKAEDTAVYYCARLKNNPFVWGQGTTVTVSS VL: DIVMTQSPDSLAVSLGERATINCRSSQLILHSSGNTYLEWYQQKPGQSPKLLIYKVSNRFSGVPDRFSGSGSGTDFTLTISSLQAEDVAVYYCFQGSHFPWTFGGGTKVEIKR", 119000),
    ("6-44.5-H1-L2 humanized antibody (antibody, human IgG1, kappa, V domains shown) VH: EVQLVQSGAEVKKPGSSVKVSCKASGHTFSSHIMHWVRQAPGQGLEWMGYINPNNDRTEYSEKFKGRVTITADKSTSTAYMELSSLRSEDTAVYYCAGEAYYSNSLYAMDYWGQGTTVTVSS VL: DIVMTQSPDSLAVSLGERATINCKSSQSLFNSRTRKNYLAWYQQKPGQSPKLLIYWASTRESGVPDRFSGSGSGTDFTLTISSLQAEDVAVYYCKQSYYLRTFGGGTKVEIKR", 491000),
]
